B1: TPR 5TU (parent)
chain: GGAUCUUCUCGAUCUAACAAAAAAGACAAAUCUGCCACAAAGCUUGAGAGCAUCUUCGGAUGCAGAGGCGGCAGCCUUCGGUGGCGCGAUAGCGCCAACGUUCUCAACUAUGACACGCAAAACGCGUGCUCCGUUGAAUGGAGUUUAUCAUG

Variants of: B1
test-description: polymerase ribozyme fitness, log enrichment relative to wild type (log ratio); higher = more active; in vitro selection for triplet polymerase activity
This sample holds only a part of the variants without activity.
Lab note: anything with polymerase ribozyme fitness (log ratio) at or over -3 counts as Fulfilled; the rest go in Not fulfilled.

Please review the entries below; each comes with its answer.
> print(dat)
           variant.code  assigned.label
1               A3U C8U       Fulfilled
2             A89U C93G   Not fulfilled
3           C116U U134C       Fulfilled
4        C14G C51U C96U   Not fulfilled
5  G81C G94U A98U U146G       Fulfilled

[in] Quick check: does A17C A40C G83C U109G have polymerase ribozyme fitness (log ratio) greater than or equal to -3?
[out] Not fulfilled

[in] Is it the case that A37U A64U has polymerase ribozyme fitness (log ratio) reaching or exceeding -3?
[out] Not fulfilled

[in] Determine whether measured polymerase ribozyme fitness (log ratio) meets or exceeds -3 for A21U G71C C93A
[out] Not fulfilled

[in] Hi, just wondering whether A12U A20U A21C C87G A142G shows polymerase ribozyme fitness (log ratio) of -3 or higher.
[out] Not fulfilled

[in] Determine whether this variant has polymerase ribozyme fitness (log ratio) no lower than -3: G117C A120G
[out] Fulfilled

[in] Quick check, polymerase ribozyme fitness (log ratio) >= -3? A52G G58U C87U
[out] Fulfilled

[in] API: above_or_equal(metric=polymerase ribozyme fitness (log ratio), cutoff=-3) for item A113U A120G
[out] Fulfilled

[in] Can A30U A52U C93A be said to have polymerase ribozyme fitness (log ratio) at or above -3?
[out] Not fulfilled

[in] Please tell me: is the variant A26C G50U C54U C96G at or over -3 in terms of polymerase ribozyme fitness (log ratio)?
[out] Not fulfilled

[in] Does the reported polymerase ribozyme fitness (log ratio) for G100A G126A fall at or above the -3 mark?
[out] Not fulfilled

[in] Assess whether reported polymerase ribozyme fitness (log ratio) for G25A A26G A40G A47C C85A C116G A119C sits at -3 or higher.
[out] Not fulfilled

[in] Answer whether polymerase ribozyme fitness (log ratio) of C76U G84U C125U G141U is greater than or equal to -3.
[out] Not fulfilled

[in] Threshold query (polymerase ribozyme fitness (log ratio) >= -3) on A107U U145A
[out] Fulfilled

[in] polymerase ribozyme fitness (log ratio) >= -3 for G25A G34C U44A G84A G88A ?
[out] Not fulfilled

[in] Quick check, polymerase ribozyme fitness (log ratio) >= -3? A19C C123G
[out] Fulfilled

[in] hey, is polymerase ribozyme fitness (log ratio) for this one >= -3? C18A U56A G58C G94A
[out] Fulfilled

[in] Say whether C14U G84U A107U A147U shows polymerase ribozyme fitness (log ratio) of -3 or more.
[out] Not fulfilled
